Parameter inhibition: see the listing below.
Target: UniProt:P41587
Sequence (whole entry): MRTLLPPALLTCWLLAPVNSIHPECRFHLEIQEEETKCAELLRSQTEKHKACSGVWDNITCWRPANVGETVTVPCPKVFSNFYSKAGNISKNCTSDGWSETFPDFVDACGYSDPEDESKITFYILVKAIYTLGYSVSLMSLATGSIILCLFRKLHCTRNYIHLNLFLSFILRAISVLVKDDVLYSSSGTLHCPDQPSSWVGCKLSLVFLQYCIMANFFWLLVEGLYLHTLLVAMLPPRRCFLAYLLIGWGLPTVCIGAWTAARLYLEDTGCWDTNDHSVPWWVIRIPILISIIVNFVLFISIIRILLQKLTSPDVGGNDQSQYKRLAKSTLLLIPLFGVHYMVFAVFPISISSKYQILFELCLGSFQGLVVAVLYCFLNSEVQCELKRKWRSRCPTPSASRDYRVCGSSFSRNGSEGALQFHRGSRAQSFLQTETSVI
Test: Antagonist activity at recombinant human N-terminal signal peptide/FLAG epitope-tagged Rluc8-fused VIPR2 expressed in HEK293 cells assessed as inhibition of VIP-induced human mVenus-beta-arrestin2 binding at 0.5 uM preincubated for 5 mins with luciferin, coelenterazine H followed by VIP addition measured after 5 mins by BRET assay relative to control
Assay type: cell-based

[
  {
    "compoundSmiles": "NC(=O)[C@@H](Cc1ccccc1)C[C@H](O)CNS(=O)(=O)c1ccc([N+](=O)[O-])cc1",
    "studySystem": "UniProt:P41587",
    "inhibition": "3.5 to 8.35%"
  },
  {
    "compoundSmiles": "CC(C)(C)c1ccc(C(=O)NC[C@@H](O)C[C@@H](Cc2ccccc2)C(=O)N[C@H]2c3ccccc3C[C@H]2O)cc1",
    "studySystem": "UniProt:P41587",
    "inhibition": "15.5 to 16.2%"
  },
  {
    "compoundSmiles": "O=C(NC[C@@H](O)C[C@@H](Cc1ccccc1)C(=O)N[C@H]1c2ccccc2C[C@H]1O)C(Cl)Cl",
    "studySystem": "UniProt:P41587",
    "inhibition": "9.5 to 19.8%"
  },
  {
    "compoundSmiles": "O=C(NC[C@@H](O)C[C@@H](Cc1ccccc1)C(=O)N[C@H]1c2ccccc2C[C@H]1O)c1cccc([N+](=O)[O-])c1",
    "studySystem": "UniProt:P41587",
    "inhibition": "4.75 to 19.9%"
  },
  {
    "compoundSmiles": "CC(C)CS(=O)(=O)NC[C@@H](O)C[C@@H](Cc1ccccc1)C(=O)N[C@H]1c2ccccc2C[C@H]1O",
    "studySystem": "UniProt:P41587",
    "inhibition": "7.1 to 21.1%"
  }
]

Incoming: If you can, please state the reported inhibition value of `Cc1cc(S(=O)(=O)NC[C@@H](O)C[C@@H](Cc2ccccc2)C(=O)N[C@H]2c3ccccc3C[C@H]2O)c(C)cc1Cl` .
Outgoing: 17.6 to 20.9%

Incoming: If you can, please state the reported inhibition value of `O=C(N[C@H]1c2ccccc2C[C@H]1O)[C@H](Cc1ccccc1)C[C@H](O)CNS(=O)(=O)c1ccc(C(=O)N2CCCCC2)cc1` .
Outgoing: -6.85 to 0%

Incoming: If you can, please state the reported inhibition value of `CCNC(=O)[C@@H](Cc1ccccc1)C[C@H](O)CNS(=O)(=O)c1ccc([N+](=O)[O-])cc1` .
Outgoing: -10 to 14.9%

Incoming: If you can, please state the reported inhibition value of `O=C(NC1Cc2ccccc2C1)[C@H](Cc1ccccc1)C[C@H](O)CNS(=O)(=O)c1ccc([N+](=O)[O-])cc1` .
Outgoing: -2.7 to 12.9%

Incoming: If you can, please state the reported inhibition value of `O=C(CCN1C(=O)C=CC1=O)NC[C@@H](O)C[C@@H](Cc1ccccc1)C(=O)N[C@H]1c2ccccc2C[C@H]1O` .
Outgoing: 7.75 to 9.9%

Incoming: If you can, please state the reported inhibition value of `CO[C@H]1Cc2ccccc2[C@@H]1NC(=O)[C@H](Cc1ccccc1)C[C@H](O)CNS(=O)(=O)c1ccc2c(c1)OCCO2` .
Outgoing: 28.1%

Incoming: If you can, please state the reported inhibition value of `CNC(=O)c1ccc(S(=O)(=O)NC[C@@H](O)C[C@@H](Cc2ccccc2)C(=O)N[C@H]2c3ccccc3C[C@H]2O)cc1` .
Outgoing: 6.3 to 34.2%

Incoming: If you can, please state the reported inhibition value of `N#Cc1ccc(S(=O)(=O)NC[C@@H](O)C[C@@H](Cc2ccccc2)C(=O)N[C@H]2c3ccccc3C[C@H]2O)cc1` .
Outgoing: 38.5 to 91.8%

Incoming: If you can, please state the reported inhibition value of `CC(=O)Nc1ccc(S(=O)(=O)NC[C@@H](O)C[C@@H](Cc2ccccc2)C(=O)N[C@H]2c3ccccc3C[C@H]2O)cc1` .
Outgoing: -1.2 to 11.7%

Incoming: If you can, please state the reported inhibition value of `O=C(Cc1cccc(Cl)c1)NC[C@@H](O)C[C@@H](Cc1ccccc1)C(=O)N[C@H]1c2ccccc2C[C@H]1O` .
Outgoing: 11.3 to 21.9%

----------
Target: Vasoactive intestinal polypeptide receptor 2 (Homo sapiens)
Sequence (whole entry): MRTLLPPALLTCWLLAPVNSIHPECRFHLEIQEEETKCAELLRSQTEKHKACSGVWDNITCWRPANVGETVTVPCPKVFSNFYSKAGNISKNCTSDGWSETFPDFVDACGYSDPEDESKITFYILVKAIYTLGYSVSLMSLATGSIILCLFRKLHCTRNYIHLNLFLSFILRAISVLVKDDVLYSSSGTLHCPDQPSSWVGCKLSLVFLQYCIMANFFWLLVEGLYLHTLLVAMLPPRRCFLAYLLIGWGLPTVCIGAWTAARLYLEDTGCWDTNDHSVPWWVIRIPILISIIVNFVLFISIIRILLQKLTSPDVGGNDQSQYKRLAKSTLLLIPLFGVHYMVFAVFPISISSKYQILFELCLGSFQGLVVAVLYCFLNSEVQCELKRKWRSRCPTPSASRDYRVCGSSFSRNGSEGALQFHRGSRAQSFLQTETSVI
Test: Antagonist activity at recombinant human N-terminal signal peptide/FLAG epitope-tagged VIPR2 expressed in HEK293 cells co-expressing CAMYEL assessed as inhibition of VIP-induced cAMP accumulation at 5 uM preincubated for 5 mins with luciferin, coelenterazine H followed by VIP addition measured after 5 mins by BRET assay relative to control
Assay type: functional, cell-based
# cutoff 20% applies to inhibition; >= gives y, < gives n

Below are worked cases with known answers.
[
  {
    "compound": "C[C@H](CC(C)(C)C)NC(=O)[C@H](Cc1ccccc1)C[C@H](O)CNS(=O)(=O)c1ccc([N+](=O)[O-])cc1",
    "labelValue": "n"
  },
  {
    "compound": "CC1CCC(NC(=O)[C@@H](Cc2ccccc2)C[C@H](O)CNS(=O)(=O)c2ccc([N+](=O)[O-])cc2)CC1 (stereo partly drawn)",
    "labelValue": "n"
  },
  {
    "compound": "CCC(=O)Nc1ccc(S(=O)(=O)NC[C@@H](O)C[C@@H](Cc2ccccc2)C(=O)N[C@H]2c3ccccc3C[C@H]2O)cc1",
    "labelValue": "y"
  }
]

Incoming: Could you please find out whether `CO[C@@H]1Cc2ccccc2[C@@H]1NC(=O)[C@H](Cc1ccccc1)C[C@H](O)CN(C)S(=O)(=O)c1ccc([N+](=O)[O-])cc1` has inhibition that meets 20% or exceeds it?
Outgoing: y

Incoming: Could you please find out whether `O=C([C@H](Cc1ccccc1)C[C@H](O)CNS(=O)(=O)c1ccc([N+](=O)[O-])cc1)N1CCOCC1` has inhibition that meets 20% or exceeds it?
Outgoing: n

Incoming: Could you please find out whether `O=C(NC[C@@H](O)C[C@@H](Cc1ccccc1)C(=O)N[C@H]1c2ccccc2C[C@H]1O)C1CC1` has inhibition that meets 20% or exceeds it?
Outgoing: y

----------
biological target: Vasoactive intestinal polypeptide receptor 2 (Homo sapiens) (UniProt P41587); test: Antagonist activity at recombinant human N-terminal signal peptide/FLAG epitope-tagged Rluc8-fused VIPR2 expressed in HEK293 cells assessed as inhibition of VIP-induced human mVenus-beta-arrestin2 binding at 0.5 uM preincubated for 5 mins with luciferin, coelenterazine H followed by VIP addition measured after 5 mins by BRET assay relative to control; type: cell-based
Parameter inhibition: see the listing below.

Below, 2 molecules whose answers are already recorded.
[
  {
    "compoundSmiles": "O=C(NC[C@@H](O)C[C@@H](Cc1ccccc1)C(=O)N[C@H]1c2ccccc2C[C@H]1O)c1cccnc1",
    "inhibition": "-6.8 to 5.05%"
  },
  {
    "compoundSmiles": "O=C(NC1CCCC1)c1ccc(S(=O)(=O)NC[C@@H](O)C[C@@H](Cc2ccccc2)C(=O)N[C@H]2c3ccccc3C[C@H]2O)cc1",
    "inhibition": "3.9 to 15.9%"
  }
]

Lab note: next molecule to report on.
Incoming: If you can, please state the reported inhibition value of `CCN(CC)C(=O)c1ccc(S(=O)(=O)NC[C@@H](O)C[C@@H](Cc2ccccc2)C(=O)N[C@H]2c3ccccc3C[C@H]2O)cc1` .
Outgoing: 0.3 to 15.3%
